Molecular target: BACE 1 (Beta Secretase enzyme) (Homo sapiens (Human), UniProt P56817)
Sequence (P56817 46-501): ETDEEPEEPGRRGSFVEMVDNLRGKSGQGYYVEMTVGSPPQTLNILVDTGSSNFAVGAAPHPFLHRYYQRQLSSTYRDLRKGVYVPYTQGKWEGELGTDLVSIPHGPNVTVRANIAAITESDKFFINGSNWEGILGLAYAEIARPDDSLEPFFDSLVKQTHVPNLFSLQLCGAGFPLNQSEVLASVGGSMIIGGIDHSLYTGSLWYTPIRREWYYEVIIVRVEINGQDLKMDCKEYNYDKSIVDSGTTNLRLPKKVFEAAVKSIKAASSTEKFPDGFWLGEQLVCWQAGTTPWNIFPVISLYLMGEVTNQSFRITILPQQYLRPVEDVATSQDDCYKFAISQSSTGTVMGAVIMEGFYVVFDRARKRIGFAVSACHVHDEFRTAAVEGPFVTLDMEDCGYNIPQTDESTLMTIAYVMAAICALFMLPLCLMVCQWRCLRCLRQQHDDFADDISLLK
Experiment: In vitro enzymatic BACE FRET assay
Format: biochemical
Conditions: average IC50; enzyme 0.2 nM, FRET substrate 50 nM, pH 4.2; read-out: BACE 1 FRET assay
Please assign a class to every record based on measured IC50, with ranges lower level: < 1 nM; middle level: ≥ 1 nM and < 50 nM; upper level: ≥ 50 nM

Worked cases, answers included:
COc1ccc2c(c1)C1(N=C(N)N(C)C1=O)c1cc(NC(=O)c3ccc(Cl)cn3)ccc1O2 (stereo not drawn) :: middle level
COc1ccc2c(c1)[C@]1(N=C(N)N(C)C1=O)c1cc(-c3cncnc3)ccc1O2 (stereo in doubt) :: middle level
CN1C(=O)C[C@@]2(N=C1N)c1cc(-c3cccnc3F)ccc1Oc1cnc(C3=CCOCC3)cc12 :: upper level
CC#Cc1cncc(-c2ccc3c(c2)[C@]2(N=C(N)N(C)C2=O)c2cc(C4=CCOCC4)cc(F)c2O3)c1 [Example 32] :: lower level
CN1C(=N)NC2(CC1=O)c1cc(-c3cccnc3F)ccc1Oc1cnc(-c3cccnc3F)cc12 (stereo not drawn) :: middle level

Input line: Please classify: CN1C(=O)CC2(N=C1N)c1cc(-c3cccnc3F)ccc1Oc1c2cc(C2=CCCOC2)nc1F (stereo not drawn)
Output line: middle level

Input line: Note, next up: CN1C(=O)C[C@@]2(N=C1N)c1cc(-c3cccnc3F)ccc1Oc1c2cc(Cl)nc1F
Output line: upper level

Input line: Field entry: CN1C(=O)C[C@]2(N=C1N)c1cc(-c3cccnc3F)ccc1Oc1cnc(C3=CCCOC3)cc12
Output line: middle level

Input line: Input CN1C(=O)C[C@]2(N=C1N)c1cc(-c3cccnc3F)ccc1Oc1c2cc(C2=CCOC(C)(C)C2)nc1F
Output line: lower level
